Form field: pest or weed control at 320 g/ha (one value per entry).
Tested on: Echinochloa crus-galli (ECHCG)
Test: Post-emergence herbicidal action, greenhouse pot trial
Assay type: in vivo
Details: Echinochloa crus-galli, 504 h, 320 g/ha, visual rating after about 3 weeks, read-out: Post-emergence effect at 320 g/ha against ECHCG in %
Description: Seeds of monocotyledonous and dicotyledonous weeds and crop plants are placed in sandy loam in plastic or organic planting pots, covered with soil and cultivated in a greenhouse under controlled growth conditions. 2 to 3 weeks after sowing, the trial plants are treated at the one-leaf stage. […]
Reported endpoint: pest or weed control at 320 g/ha

INSERT INTO assay_data (molecule, reported_endpoint, result) VALUES
  ('CCOC(=O)C(Oc1nn(-c2ncccc2F)c(-c2ccc(F)nc2)c1C(F)(F)F)SC (centres unmarked)', 'pest or weed control at 320 g/ha', '80%'),
  ('CCOC(=O)C(Oc1nn(-c2ccccc2F)c(-c2ccc(F)nc2)c1C(F)(F)F)SC (centres unmarked)', 'pest or weed control at 320 g/ha', '90%'),
  ('CCOC(=O)C(Oc1nn(-c2ncccc2F)c(-c2ccc(F)nc2)c1Br)SC (single isomer, unassigned) [Example I-28]', 'pest or weed control at 320 g/ha', '90%'),
  ('CCOC(=O)C(Oc1nn(-c2cc(F)ccc2F)c(-c2cncc(F)c2)c1I)SC (centres unmarked)', 'pest or weed control at 320 g/ha', '90%'),
  ('CCOC(=O)C(Oc1nn(-c2cc(F)ccc2F)c(-c2cncc(F)c2)c1Br)SC (centres unmarked)', 'pest or weed control at 320 g/ha', '90%'),
  ('CSC(Oc1nn(-c2ncccc2F)c(-c2ccc(F)nc2)c1C1CC1)C(=O)O (centres unmarked)', 'pest or weed control at 320 g/ha', '80%'),
  ('CCOC(=O)C(Oc1nn(-c2ccccc2F)c(-c2ccc(F)nc2)c1Br)SC (centres unmarked) [Example I-01]', 'pest or weed control at 320 g/ha', '80%'),
  ('CCOC(=O)C(Oc1nn(-c2cnccn2)c(-c2ccc(F)nc2)c1Cl)SC (centres unmarked)', 'pest or weed control at 320 g/ha', '80%');

----------
Form field: Post-emergence effect at 80 g/ha against PHBPU in % (one value per entry).
Tested on: Pharbitis purpurea (PHBPU)
Assay: Post-emergence herbicidal action, greenhouse pot trial
Type: in vivo
Settings: 80 g/ha, visual rating after about 3 weeks
Reported endpoint: Post-emergence effect at 80 g/ha against PHBPU in % (%)

INSERT INTO assay_data (compound, result_number) VALUES
  ('COC(=O)CCOC(=O)C(Oc1nn(-c2ncccc2F)c(-c2cncc(F)c2)c1Br)SC (centres unmarked)', 80),
  ('COC(=O)CCOC(=O)C(Oc1nn(-c2ncccc2F)c(-c2ccc(F)nc2)c1Br)SC (single isomer, unassigned) [Example I-23]', 80),
  ('COC(=O)CCOC(=O)C(Oc1nn(-c2ncccc2F)c(-c2ccc(F)nc2)c1Br)SC (single isomer, unassigned) [Example I-22]', 90),
  ('COC(=O)CCOC(=O)C(Oc1nn(-c2ncccc2F)c(-c2cncc(F)c2)c1C1CC1)SC (centres unmarked)', 90),
  ('CSC(Oc1nn(-c2ncccc2F)c(-c2ccc(F)nc2)c1Br)C(=O)O (single isomer, unassigned)', 90);

Where do the numbers come from? From patent US20250026724A1.
